Tested on: HT-1080 fibrosarcoma cells
method summary: MTT cell viability assay, HT-1080
Type: cell-based, human
run parameters: Homo sapiens, HT-1080, 72 h, read-out: IC50 of anthracyclines, HT-1080, 1% O2, 72 h
value type: pIC50
Lab note — pIC50 values are minus log10 of concentrations in M.

Enquiry: # returns recorded pIC50 (system: HT-1080 fibrosarcoma cells) for COc1cccc2c1C(=O)c1c(O)c3c(c(O)c1C2=O)C[C@@](O)(C(C)=O)C[C@@H]3O[C@H]1C[C@H](N)[C@H](O)[C@H](C)O1
Return: 6.09

----------
System: MDA-MB-231 breast cancer cells
method summary: MTT cell viability assay, MDA-MB-231
Type: cell-based, human
run parameters: Homo sapiens, MDA-MB-231, MDA-MB-231, 1% O2; Baf 100 nM or Cq 10 μM where combined; read-out: IC50 of doxorubicin, cells treated with neutralizing agents
value type: pIC50
Lab note — pIC50 values are minus log10 of concentrations in M.

Enquiry: Looking for the measured pIC50 of COc1cccc2c1C(=O)c1c(O)c3c(c(O)c1C2=O)C[C@@](O)(C(=O)CO)C[C@@H]3O[C@H]1C[C@H](N)[C@H](O)[C@H](C)O1 , can you help?
Return: 6.07

// data source = patent US10973840B2
